Record form. Attribute: % NO2-. Fill in for each entry.
Assay: Nitric oxide released from prodrug in the presence of cysteine
Form entry: value (M/M) — number only.

Returns the measured % NO2- for the input compound. Input: NCCOc1no[n+]([O-])c1S(=O)(=O)c1ccccc1 19.7

Continue with CN(C)CCCOc1c(-c2ccccc2)no[n+]1[O-] 91.1

And what about the compound CN(C)CCS(=O)(=O)c1no[n+]([O-])c1-c1ccccc1 ? 8.8
